B1: library; numbered along this chain (parent)
chain: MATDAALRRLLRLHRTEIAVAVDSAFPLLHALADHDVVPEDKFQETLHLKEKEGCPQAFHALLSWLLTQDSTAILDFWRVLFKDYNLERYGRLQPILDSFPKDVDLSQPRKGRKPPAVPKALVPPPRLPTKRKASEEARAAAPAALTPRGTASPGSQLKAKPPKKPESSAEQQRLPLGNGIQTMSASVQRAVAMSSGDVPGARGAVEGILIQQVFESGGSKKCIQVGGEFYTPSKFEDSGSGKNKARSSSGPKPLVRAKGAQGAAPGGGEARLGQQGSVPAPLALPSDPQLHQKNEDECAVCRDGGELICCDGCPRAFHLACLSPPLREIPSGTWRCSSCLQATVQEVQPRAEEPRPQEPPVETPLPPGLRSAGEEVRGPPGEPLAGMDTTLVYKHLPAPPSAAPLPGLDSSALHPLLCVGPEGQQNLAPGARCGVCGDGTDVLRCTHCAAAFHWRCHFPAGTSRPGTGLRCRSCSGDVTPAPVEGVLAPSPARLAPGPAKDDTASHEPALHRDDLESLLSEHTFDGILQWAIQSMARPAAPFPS

# Variants of: B1
# measurement-notes: AIRE transcriptional activation functional score (insulin promoter-GFP; nonsense median 0, synonymous median 1) (normalised score); higher = higher AIRE activity (more reporter activation)
# condition-info: with insulin promoter-GFP reporter in HEK293
The entries below are paired with their reported AIRE transcriptional activation functional score.

Before answering, review these 10 worked examples.
INSERT INTO results (variant_identifier, endpoint_value) VALUES
  ('D526Y', 1.02),
  ('G408C', 1.01),
  ('R433P', 0.565),
  ('D103M', -0.761),
  ('C322H', 1.5),
  ('R247P', 0.344),
  ('K259P', 0.82),
  ('F59R', -0.191),
  ('D304K', 1.11),
  ('T183N', 1.18);

stdin: Given the variant `E354V` , write its reported AIRE transcriptional activation functional score.
stdout: 1.08

stdin: Specify AIRE transcriptional activation functional score for `T151E` and stop.
stdout: 1.13

stdin: Entry `L93G` needs its AIRE transcriptional activation functional score filled in; supply it.
stdout: -0.0131
